Molecular target: Peroxisome proliferator-activated receptor gamma (Homo sapiens)
pEC50: −log10 of the molar value.
Returns True if the recorded pEC50 is greater than or equal to 6, and False otherwise.

Sample answers from the record:
CCO[C@@H](Cc1ccc(CCC(OC(=S)NCc2ccc(C(C)(C)C)cc2)c2ccccc2)cc1)C(=O)O (some centres undefined) = True
CCO[C@H](Cc1ccc(CCC(OC(=S)NCc2ccc(C(C)(C)C)cc2)c2ccccc2)cc1)C(=O)O (some centres undefined) = True
CCO[C@@H](Cc1ccc(CCC(O)c2ccccc2)cc1)C(=O)O (some centres undefined) = True
CCO[C@H](Cc1ccc(CCC(OC(=S)NCc2ccccc2)c2ccccc2)cc1)C(=O)O (some centres undefined) = True

stdin: Kindly determine if pEC50 recorded for CCO[C@@H](Cc1ccc(CCC(OC(=S)NCc2ccccc2)c2ccccc2)cc1)C(=O)O (some centres undefined) is above or exactly 6.
stdout: True

stdin: Kindly determine if pEC50 recorded for CCCNC(=S)OC(CCc1ccc(C[C@H](OCC)C(=O)O)cc1)c1ccccc1 (some centres undefined) is above or exactly 6.
stdout: False

stdin: Kindly determine if pEC50 recorded for CCCCNC(=S)OC(CCc1ccc(C[C@H](OCC)C(=O)O)cc1)c1ccccc1 (some centres undefined) is above or exactly 6.
stdout: False

* * *

Attribute: EC50
Target: Peroxisome proliferator-activated receptor alpha (Homo sapiens)
Sequence (Q07869 whole entry): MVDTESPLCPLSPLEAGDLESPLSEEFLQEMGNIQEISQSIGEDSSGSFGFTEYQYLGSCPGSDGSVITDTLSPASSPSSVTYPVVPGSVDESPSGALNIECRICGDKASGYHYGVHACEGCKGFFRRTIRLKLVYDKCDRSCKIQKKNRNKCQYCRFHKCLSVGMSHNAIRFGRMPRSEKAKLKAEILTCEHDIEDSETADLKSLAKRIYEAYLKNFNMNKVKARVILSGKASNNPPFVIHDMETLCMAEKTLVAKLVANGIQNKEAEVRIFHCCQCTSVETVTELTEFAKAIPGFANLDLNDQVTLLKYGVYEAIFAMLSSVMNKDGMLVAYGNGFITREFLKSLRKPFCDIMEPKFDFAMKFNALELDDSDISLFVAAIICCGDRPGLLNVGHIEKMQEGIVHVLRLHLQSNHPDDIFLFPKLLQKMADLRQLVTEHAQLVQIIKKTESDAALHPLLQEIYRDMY
Answer with a number only, understood to be in µM.

Please review the entries below; each comes with its answer.
CCO[C@@H](Cc1ccc(CCC(O)c2ccccc2)cc1)C(=O)O (some centres undefined) = 1.51
Cc1ccc(C)c(OCCCC(C)(C)C(=O)O)c1 = 193
CCCCNC(=S)OC(CCc1ccc(C[C@H](OCC)C(=O)O)cc1)c1ccccc1 (some centres undefined) = 7.26
CCCNC(=S)OC(CCc1ccc(C[C@H](OCC)C(=O)O)cc1)c1ccccc1 (some centres undefined) = 3.94
CCO[C@H](Cc1ccc(CCC(OC(=S)NCCc2ccccc2)c2ccccc2)cc1)C(=O)O (some centres undefined) = 2.77
CCO[C@@H](Cc1ccc(CCC(OC(=S)NCc2ccc(C(C)(C)C)cc2)c2ccccc2)cc1)C(=O)O (some centres undefined) = 3.27

stdin: Record CCO[C@@H](Cc1ccc(OCC(OC(=S)NCc2ccccc2)c2ccccc2)cc1)C(=O)O (some centres undefined) : what is its EC50 with Peroxisome proliferator-activated receptor alpha (Homo sapiens)?
stdout: 6.21

stdin: Record CCO[C@@H](Cc1ccc(CCC(OC(=O)NCc2ccccc2)c2ccccc2)cc1)C(=O)O (some centres undefined) : what is its EC50 with Peroxisome proliferator-activated receptor alpha (Homo sapiens)?
stdout: 6.05

stdin: Record CCO[C@@H](Cc1ccc(CCC(OC(=S)NCCc2ccccc2)c2ccccc2)cc1)C(=O)O (some centres undefined) : what is its EC50 with Peroxisome proliferator-activated receptor alpha (Homo sapiens)?
stdout: 0.88

stdin: Record CCO[C@@H](Cc1ccc(CCC(OC(=S)NCC2CCCCC2)c2ccccc2)cc1)C(=O)O (some centres undefined) : what is its EC50 with Peroxisome proliferator-activated receptor alpha (Homo sapiens)?
stdout: 10.7

stdin: Record CCO[C@@H](Cc1ccc(CCC(OC(=S)Nc2ccccc2)c2ccccc2)cc1)C(=O)O (some centres undefined) : what is its EC50 with Peroxisome proliferator-activated receptor alpha (Homo sapiens)?
stdout: 5.25

stdin: Record CCO[C@H](Cc1ccc(CCC(OC(=S)NCc2ccc(C(C)(C)C)cc2)c2ccccc2)cc1)C(=O)O (some centres undefined) : what is its EC50 with Peroxisome proliferator-activated receptor alpha (Homo sapiens)?
stdout: 0.38

stdin: Record CCNC(=S)OC(CCc1ccc(C[C@H](OCC)C(=O)O)cc1)c1ccccc1 (some centres undefined) : what is its EC50 with Peroxisome proliferator-activated receptor alpha (Homo sapiens)?
stdout: 20.4

stdin: Record `CCO[C@@H](Cc1ccc(CCCOC(=S)NCc2ccccc2)cc1)C(=O)O` : what is its EC50 with Peroxisome proliferator-activated receptor alpha (Homo sapiens)?
stdout: 1.47

* * *

Biological target: Peroxisome proliferator-activated receptor gamma (Homo sapiens, UniProt P37231)
Sequence (P37231 whole entry): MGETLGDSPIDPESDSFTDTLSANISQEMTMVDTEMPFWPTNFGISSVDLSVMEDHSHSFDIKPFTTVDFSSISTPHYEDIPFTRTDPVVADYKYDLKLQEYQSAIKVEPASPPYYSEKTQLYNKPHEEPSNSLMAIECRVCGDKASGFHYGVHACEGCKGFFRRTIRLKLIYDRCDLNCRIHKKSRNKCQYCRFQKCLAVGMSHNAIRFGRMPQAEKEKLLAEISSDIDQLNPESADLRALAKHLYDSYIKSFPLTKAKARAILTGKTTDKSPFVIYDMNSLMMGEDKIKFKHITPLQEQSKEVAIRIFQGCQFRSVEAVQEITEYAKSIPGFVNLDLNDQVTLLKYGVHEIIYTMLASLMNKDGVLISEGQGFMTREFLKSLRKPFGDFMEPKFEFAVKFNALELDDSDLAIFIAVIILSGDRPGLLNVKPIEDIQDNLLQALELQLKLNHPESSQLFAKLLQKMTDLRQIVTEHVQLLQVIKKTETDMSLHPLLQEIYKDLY
pEC50: −log10 of the molar value.
Returns 1 if the recorded pEC50 is greater than or equal to 6, and -1 otherwise.

CCO[C@@H](Cc1ccc(CCC(OC(=S)NCCc2ccccc2)c2ccccc2)cc1)C(=O)O (stereo partly specified) = 1
CCO[C@@H](Cc1ccc(OCC(OC(=S)NCc2ccccc2)c2ccccc2)cc1)C(=O)O (stereo partly specified) = -1
CCNC(=S)OC(CCc1ccc(C[C@H](OCC)C(=O)O)cc1)c1ccccc1 (stereo partly specified) = -1

Moving on to the next molecule.
stdin: Kindly determine if pEC50 recorded for CCO[C@@H](Cc1ccc(CCC(OC(=S)Nc2ccccc2)c2ccccc2)cc1)C(=O)O (stereo partly specified) is above or exactly 6.
stdout: -1
